Ref: the DeepSol protein solubility set

test: soluble on expression in E. coli; label from the status in PepcDB or PDB records
ENDPOINT_LABEL: soluble on expression in E. coli

Query soluble on expression in E. coli for TVAVSQIVEHPALDATRQGLLDGLKAKGYEEGKNLEFDYKTAQGNPAIAVQIARQYVGESPDVLVGIATPSAQALVSATRTIPVVFTAVTDPVGAKLVKSMKQPGKNVTGLSDLSPVAQHVELIQEILPQVKSIGVVFNPGEANAVTLVNLLKESAEAKGIKVVEATALKSADVQSATQAIAAKSDILYAPTDNTVASAIEGMIVAANQAKKPVFGGATSYVEKGAIAGLGFDYYQVGVQTADYVAAILDGQEPGKLDVKVATGSDLVINESAASKLGIQLPSSVVQRATSMQ not soluble

Query soluble on expression in E. coli for MMRPDAKVEKVYLYPKPVDFRKSIDGLAALVELDIKVAVFDPVLFVFLNRHRNRVKILYWERNGFCLWLKRLESERFKTSPDETDEAIVLTVQELNWLLDGFDLWRNRPHKVLTPRFVA not soluble

Query soluble on expression in E. coli for MTEKLKNSKEVIAYIAECFPKCFTLEGEAKPLKIGIFQDLAERLNEDEKVSKTQLRAALRQYTSSWRYLHGVKPGAVRVDLDGNPCGELEEEHVEHAKATLAESKAKVQARRKEQAQKAREEGKAKAKPAANKKPQQPRRTNKPKVQKPTK not soluble
